Molecular target: T1, orthogonal hCD122 receptor (hoRb), hCD122 with H133D and Y134F (human, UniProt P14784 27-550)
T1 sequence: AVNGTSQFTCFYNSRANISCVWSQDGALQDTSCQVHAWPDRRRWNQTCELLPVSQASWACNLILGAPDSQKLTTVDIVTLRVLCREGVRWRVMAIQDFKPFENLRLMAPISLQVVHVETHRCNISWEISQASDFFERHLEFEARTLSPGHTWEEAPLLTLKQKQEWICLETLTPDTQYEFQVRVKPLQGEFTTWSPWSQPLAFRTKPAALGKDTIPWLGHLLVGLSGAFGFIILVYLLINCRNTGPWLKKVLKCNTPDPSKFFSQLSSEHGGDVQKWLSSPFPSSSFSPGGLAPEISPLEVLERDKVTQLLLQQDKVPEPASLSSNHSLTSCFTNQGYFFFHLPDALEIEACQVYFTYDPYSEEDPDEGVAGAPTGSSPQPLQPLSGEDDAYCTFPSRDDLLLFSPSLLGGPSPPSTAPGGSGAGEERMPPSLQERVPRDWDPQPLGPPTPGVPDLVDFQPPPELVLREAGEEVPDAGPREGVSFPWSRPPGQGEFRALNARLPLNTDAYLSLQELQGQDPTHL
Test: cell-based or functional assay
Rule: NKL Ortho Proliferation Signal 1:50 below 20000 gives Met, anything at or above gives Not met.

Here's what some known entries look like.
SNVLKA (ligand) APTSSSTKKTQLQLSNLLVLLKAILNGINNYKNPKLTRMLTFKFYMPKKATELKHLQCLEEELKPLEEVLNLAQSKNFHLRPRDLISNINVIVLELKGSETTFMCEYADETATIVEFLNRWITFCQSIISTLT
Met
ΔP2, SQVLKA (ligand) ATSSSTKKTQLQLSQLLVLLKAILNGINNYKNPKLTRMLTFKFYMPKKATELKHLQCLEEELKPLEEVLNLAQSKNFHLRPRDLISNINVIVLELKGSETTFMCEYADETATIVEFLNRWITFCQSIISTLT
Not met
T3C, SQVLKA (ligand) APCSSSTKKTQLQLSQLLVLLKAILNGINNYKNPKLTRMLTFKFYMPKKATELKHLQCLEEELKPLEEVLNLAQSKNFHLRPRDLISNINVIVLELKGSETTFMCEYADETATIVEFLNRWITFCQSIISTLT
Not met

Dear reviewer, please state whether SQVLEA (ligand) APTSSSTKKTQLQLSQLLVLLEAILNGINNYKNPKLTRMLTFKFYMPKKATELKHLQCLEEELKPLEEVLNLAQSKNFHLRPRDLISNINVIVLELKGSETTFMCEYADETATIVEFLNRWITFCQSIISTLT has NKL Ortho Proliferation Signal 1:50 strictly beneath 20000. Met

Problem: For the binder Q126H, SQVLKA (ligand) APTSSSTKKTQLQLSQLLVLLKAILNGINNYKNPKLTRMLTFKFYMPKKATELKHLQCLEEELKPLEEVLNLAQSKNFHLRPRDLISNINVIVLELKGSETTFMCEYADETATIVEFLNRWITFCHSIISTLT , is NKL Ortho Proliferation Signal 1:50 under 20000? Met

Below 20000 on NKL Ortho Proliferation Signal 1:50? Entry Q13W SQVLKA (ligand) APTSSSTKKTQLWLSQLLVLLKAILNGINNYKNPKLTRMLTFKFYMPKKATELKHLQCLEEELKPLEEVLNLAQSKNFHLRPRDLISNINVIVLELKGSETTFMCEYADETATIVEFLNRWITFCQSIISTLT Met

Decide: NKL Ortho Proliferation Signal 1:50 of M104A, SQVLKA (ligand) APTSSSTKKTQLQLSQLLVLLKAILNGINNYKNPKLTRMLTFKFYMPKKATELKHLQCLEEELKPLEEVLNLAQSKNFHLRPRDLISNINVIVLELKGSETTFACEYADETATIVEFLNRWITFCQSIISTLT strictly below 20000? Not met
